Every entry's value here was drawn from the Immune Epitope Database (IEDB).

- Target desc: HLA-A*30:02
- Assay details: IEDB peptide-MHC binding, purified MHC/competitive/radioactivity; filed as Kd, often an IC50 or EC50 that approximates it; bounds were set here for any values at or beyond the usual limits of such assays
- Study conditions: source organism: Dengue virus 1 Brazil/97-11/1997
Observed property: Kd (nM)
All answers are understood in nM, so give the number only.

Qu. // fetch HLA-A*30:02 Kd for "NGVVTTSGTY"
Ans. 694

====

- Target desc: HLA-B*15:02
- Assay details: IEDB peptide-MHC binding, purified MHC/direct/fluorescence; filed as Kd, often an IC50 or EC50 that approximates it; bounds were set here for any values at or beyond the usual limits of such assays
- Study conditions: source organism: dengue virus type 3
Observed property: pKd
As a rule, pKd stands for the negative log10 of the concentration, concentration in M.

Qu. // returns reported pKd for input "GMGEAAAIF"
Ans. 6.80

====

- Target desc: HLA-B*48:01
- Assay details: IEDB peptide-MHC binding, purified MHC/competitive/fluorescence; filed as Kd, often an IC50 or EC50 that approximates it; bounds were set here for any values at or beyond the usual limits of such assays
- Study conditions: source organism: Giardia lamblia ATCC 50803
Observed property: pKd
As a rule, pKd stands for the negative log10 of the concentration, concentration in M.

Qu. // returns reported pKd for input "GMYGHPFAL"
Ans. 7.55

====

- Target desc: HLA-A*01:01
- Assay details: IEDB peptide-MHC binding, purified MHC/direct/fluorescence; filed as Kd, often an IC50 or EC50 that approximates it; bounds were set here for any values at or beyond the usual limits of such assays
- Study conditions: source organism: Francisella tularensis subsp. holarctica LVS
pKd: −log10 of the molar value.
Observed property: pKd

Qu. // returns reported pKd for input "LSDNLSLVY"
Ans. ≥ 9.00

====

- Target desc: HLA-A*02:03
- Assay details: IEDB peptide-MHC binding, purified MHC/competitive/radioactivity; filed as Kd, often an IC50 or EC50 that approximates it; bounds were set here for any values at or beyond the usual limits of such assays
- Study conditions: source organism: Human immunodeficiency virus type 1 BH10
Observed property: pKd
As a rule, pKd stands for the negative log10 of the concentration, concentration in M.

Qu. // fetch HLA-A*02:03 pKd for "RGPGRAFVTI"
Ans. 4.91

====

- Target desc: HLA-C*05:01
- Assay details: IEDB peptide-MHC binding, purified MHC/direct/fluorescence; filed as Kd, often an IC50 or EC50 that approximates it; bounds were set here for any values at or beyond the usual limits of such assays
- Study conditions: source organism: West Nile virus
Observed property: Kd

Qu. // returns reported Kd for input "FVDVGVSAL"
Ans. ≤ 1 nM

====

- Target desc: HLA-B*08:01
- Assay details: IEDB peptide-MHC binding, purified MHC/competitive/radioactivity; filed as Kd, often an IC50 or EC50 that approximates it; bounds were set here for any values at or beyond the usual limits of such assays
- Study conditions: source organism: Dengue virus 3 Singapore/8120/1995
Observed property: pKd
As a rule, pKd stands for the negative log10 of the concentration, concentration in M.

Qu. // returns reported pKd for input "IMKIGIGVLL"
Ans. 5.37

====

- Target desc: HLA-A*32:01
- Assay details: IEDB peptide-MHC binding, purified MHC/competitive/radioactivity; filed as Kd, often an IC50 or EC50 that approximates it; bounds were set here for any values at or beyond the usual limits of such assays
- Study conditions: source organism: Dengue virus 4 Philippines/H241/1956
So I've got a bunch of sequences here, and I need their Kd values.
Your answer should be a number followed by the unit of measure.

Qu. // returns reported Kd for input "QVFGSVYTT"
Ans. 8250 nM

Qu. // returns reported Kd for input "VMLLVHYAI"
Ans. 11.6 nM

Qu. // returns reported Kd for input "AVLFVVTLI"
Ans. 1270 nM

====

- Target desc: HLA-B*15:09
- Assay details: IEDB peptide-MHC binding, purified MHC/direct/fluorescence; filed as Kd, often an IC50 or EC50 that approximates it; bounds were set here for any values at or beyond the usual limits of such assays
- Study conditions: source organism: Coxiella burnetii Q321
Observed property: Kd

Qu. // fetch HLA-B*15:09 Kd for "MTFPVSLEY"
Ans. ≥ 20 µM

====

- Target desc: HLA-B*15:17
- Assay details: IEDB peptide-MHC binding, purified MHC/competitive/fluorescence; filed as Kd, often an IC50 or EC50 that approximates it; bounds were set here for any values at or beyond the usual limits of such assays
- Study conditions: source organism: Entamoeba histolytica HM-1:IMSS
pKd: −log10 of the molar value.
Observed property: pKd

Qu. // returns reported pKd for input "IEAKINVAD"
Ans. ≤ 4.70

====

- Target desc: HLA-B*07:02
- Assay details: IEDB peptide-MHC binding, purified MHC/direct/fluorescence; filed as Kd, often an IC50 or EC50 that approximates it; bounds were set here for any values at or beyond the usual limits of such assays
- Study conditions: source organism: Rickettsia sibirica 246
Observed property: Kd

Qu. // returns reported Kd for input "EFVSANLAM"
Ans. ≥ 20 µM

====

- Target desc: HLA-A*26:01
- Assay details: IEDB peptide-MHC binding, purified MHC/competitive/fluorescence; filed as Kd, often an IC50 or EC50 that approximates it; bounds were set here for any values at or beyond the usual limits of such assays
- Study conditions: source organism: Bacillus anthracis str. A2012
Observed property: Kd

Qu. // fetch HLA-A*26:01 Kd for "FVAAGAFHM"
Ans. 278 nM

====

- Target desc: HLA-A*80:01
- Assay details: IEDB peptide-MHC binding, purified MHC/direct/fluorescence; filed as Kd, often an IC50 or EC50 that approximates it; bounds were set here for any values at or beyond the usual limits of such assays
- Study conditions: source organism: West Nile virus
Observed property: pKd
As a rule, pKd stands for the negative log10 of the concentration, concentration in M.

Qu. // returns reported pKd for input "MTRGLLGSY"
Ans. 6.76

====

- Target desc: HLA-A*02:11
- Assay details: IEDB peptide-MHC binding, purified MHC/competitive/fluorescence; filed as Kd, often an IC50 or EC50 that approximates it; bounds were set here for any values at or beyond the usual limits of such assays
- Study conditions: source organism: Vibrio vulnificus CMCP6
pKd: −log10 of the molar value.
Observed property: pKd

Qu. // fetch HLA-A*02:11 pKd for "WLAGFEPSE"
Ans. ≤ 4.70

====

- Target desc: HLA-A*02:01
- Assay details: IEDB peptide-MHC binding, purified MHC/direct/fluorescence; filed as Kd, often an IC50 or EC50 that approximates it; bounds were set here for any values at or beyond the usual limits of such assays
- Study conditions: source organism: Marburg virus - Musoke, Kenya, 1980
So I've got a bunch of sequences here, and I need their Kd values.
All answers are understood in nM, so give the number only.

Qu. // returns reported Kd for input "YLPEDSDIL"
Ans. 525

Qu. // returns reported Kd for input "YMQQVSEGL"
Ans. 154

====

- Target desc: HLA-B*07:02
- Assay details: IEDB peptide-MHC binding, purified MHC/direct/fluorescence; filed as Kd, often an IC50 or EC50 that approximates it; bounds were set here for any values at or beyond the usual limits of such assays
- Study conditions: source organism: Influenza A virus (A/seal/Mass/1/1980(H7N7))
Observed property: Kd (µM)
All answers are understood in µM, so give the number only.

Qu. // returns reported Kd for input "DPKKTGGPI"
Ans. 0.0849

====

- Target desc: HLA-B*53:01
- Assay details: IEDB peptide-MHC binding, purified MHC/competitive/radioactivity; filed as Kd, often an IC50 or EC50 that approximates it; bounds were set here for any values at or beyond the usual limits of such assays
- Study conditions: source organism: Vaccinia virus WR
Observed property: Kd (µM)
All answers are understood in µM, so give the number only.

Qu. // fetch HLA-B*53:01 Kd for "EPEKDIRELL"
Ans. 0.226

Qu. // fetch HLA-B*53:01 Kd for "KPVIVPDIKL"
Ans. 5.2

Qu. // fetch HLA-B*53:01 Kd for "PPLISILMI"
Ans. 0.818

Qu. // fetch HLA-B*53:01 Kd for "RPRVTKQYIV"
Ans. 4.45

Qu. // fetch HLA-B*53:01 Kd for "NPNCLEWLRA"
Ans. 2.05

Qu. // fetch HLA-B*53:01 Kd for "EPISDYSAEV"
Ans. 2.39

====

- Target desc: HLA-A*69:01
- Assay details: IEDB peptide-MHC binding, purified MHC/competitive/fluorescence; filed as Kd, often an IC50 or EC50 that approximates it; bounds were set here for any values at or beyond the usual limits of such assays
- Study conditions: source organism: Giardia lamblia ATCC 50803
pKd: −log10 of the molar value.
Observed property: pKd

Qu. // returns reported pKd for input "DEYGPVFVE"
Ans. ≤ 4.70
